# ASSAYED TARGET: STAT5a Trp566Arg (Homo sapiens, UniProt P42229, W566R)
# Sequence (P42229 whole entry W566R): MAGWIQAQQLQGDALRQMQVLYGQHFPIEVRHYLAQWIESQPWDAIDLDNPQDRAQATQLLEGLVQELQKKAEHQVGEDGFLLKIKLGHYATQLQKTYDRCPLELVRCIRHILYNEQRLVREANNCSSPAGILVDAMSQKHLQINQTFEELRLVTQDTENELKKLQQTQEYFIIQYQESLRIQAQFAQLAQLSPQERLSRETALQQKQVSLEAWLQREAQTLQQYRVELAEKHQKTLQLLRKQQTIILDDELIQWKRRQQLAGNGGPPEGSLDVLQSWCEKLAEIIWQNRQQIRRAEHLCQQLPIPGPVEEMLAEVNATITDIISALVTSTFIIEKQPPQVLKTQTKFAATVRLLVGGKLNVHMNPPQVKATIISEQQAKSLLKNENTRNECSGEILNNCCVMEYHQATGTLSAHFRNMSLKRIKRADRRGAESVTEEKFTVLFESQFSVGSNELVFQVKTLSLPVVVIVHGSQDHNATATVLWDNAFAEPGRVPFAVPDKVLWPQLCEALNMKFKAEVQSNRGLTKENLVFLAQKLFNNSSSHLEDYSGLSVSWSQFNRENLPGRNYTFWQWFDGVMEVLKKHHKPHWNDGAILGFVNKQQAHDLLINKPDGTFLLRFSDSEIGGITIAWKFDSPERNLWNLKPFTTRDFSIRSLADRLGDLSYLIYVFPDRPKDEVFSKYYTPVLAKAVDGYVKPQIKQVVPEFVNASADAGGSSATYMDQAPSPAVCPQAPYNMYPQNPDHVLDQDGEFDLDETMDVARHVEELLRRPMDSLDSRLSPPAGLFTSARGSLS
# ASSAY SUMMARY: Fluorescence polarization assay, point mutant STAT5a Trp566Arg
# CONDITION PARAMETERS: FP assay, double-purified protein
MEASURED PROPERTY: pIC50
Remember, pIC50 is on a log scale: it is -log10 of the molar concentration.

Param readout = pIC50; param system = STAT5a Trp566Arg (Homo sapiens, UniProt P42229, W566R); param query = COc1cc(-c2cc(OP(=O)(O)O)cc(-c3cc(OC)c(OC)c(OC)c3)c2)cc(OC)c1OC ; response: value
3.81

----------
# ASSAYED TARGET: STAT5b (Homo sapiens, UniProt P51692)
# Construct: made in house
# Sequence (P51692 whole entry): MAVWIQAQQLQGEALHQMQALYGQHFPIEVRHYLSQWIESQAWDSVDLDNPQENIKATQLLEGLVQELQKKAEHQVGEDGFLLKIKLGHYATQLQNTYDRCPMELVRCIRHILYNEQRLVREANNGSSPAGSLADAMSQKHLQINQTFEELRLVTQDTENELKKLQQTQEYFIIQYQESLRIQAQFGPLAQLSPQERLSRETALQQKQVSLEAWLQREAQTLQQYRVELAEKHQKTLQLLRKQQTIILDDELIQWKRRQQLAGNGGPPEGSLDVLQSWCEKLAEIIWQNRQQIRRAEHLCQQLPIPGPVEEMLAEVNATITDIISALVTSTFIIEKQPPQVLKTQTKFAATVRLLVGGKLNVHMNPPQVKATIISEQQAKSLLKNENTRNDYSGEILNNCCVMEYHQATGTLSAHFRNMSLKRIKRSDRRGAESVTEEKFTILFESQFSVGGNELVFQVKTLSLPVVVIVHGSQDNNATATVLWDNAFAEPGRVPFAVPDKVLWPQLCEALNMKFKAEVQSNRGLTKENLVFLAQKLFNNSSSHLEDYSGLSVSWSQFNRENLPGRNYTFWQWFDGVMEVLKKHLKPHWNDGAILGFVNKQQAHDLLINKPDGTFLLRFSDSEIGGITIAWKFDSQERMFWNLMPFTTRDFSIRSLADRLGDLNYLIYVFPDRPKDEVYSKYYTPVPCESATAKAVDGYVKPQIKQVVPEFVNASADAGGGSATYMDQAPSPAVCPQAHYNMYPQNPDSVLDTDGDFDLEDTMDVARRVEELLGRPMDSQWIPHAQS
# ASSAY SUMMARY: Fluorescence polarization competitive binding assay, STAT5b
Label scheme for IC50: low band: < 60 µM; middle band: ≥ 60 µM and < 80 µM; high band: ≥ 80 µM

Which class holds O=P(O)(O)Oc1cc(-c2ccc3c(c2)OCCO3)cc(-c2ccc3c(c2)OCCO3)c1 ?
middle band

Same again, this time with O=P(O)(O)Oc1cc(-c2ccc(Cl)cc2)cc(-c2ccc(Cl)cc2)c1
low band

Same again, this time with COc1cc(OC)cc(-c2cc(OP(=O)(O)O)cc(-c3cc(OC)cc(OC)c3)c2)c1
middle band

Same again, this time with O=P(O)(O)Oc1cc(-c2ccccc2)cc(-c2ccccc2)c1
high band

Same again, this time with COc1ccc(-c2cc(OP(=O)(O)O)cc(-c3ccc(Cl)cc3)c2)cc1
low band

Same again, this time with COc1ccc(-c2cc(OP(=O)(O)O)cc(-c3ccc(OC)cc3)c2)cc1
middle band

Same again, this time with O=P(O)(O)Oc1cc(-c2ccc3c(c2)OCO3)cc(-c2ccc3c(c2)OCO3)c1
low band

Same again, this time with O=P(O)(O)Oc1cc(-c2cc(F)c(F)c(F)c2)cc(-c2cc(F)c(F)c(F)c2)c1
low band

Same again, this time with COc1ccccc1-c1cc(OP(=O)(O)O)cc(-c2ccccc2OC)c1
high band

Same again, this time with COc1cccc(-c2cc(OP(=O)(O)O)cc(-c3cccc(OC)c3)c2)c1
high band

----------
# ASSAYED TARGET: STAT5b (Homo sapiens, UniProt P51692)
# Construct: made in house
# ASSAY SUMMARY: Fluorescence polarization competitive binding assay, STAT5b
# CONDITION PARAMETERS: read-out: STAT5b inhibition at 200 μM
MEASURED PROPERTY: inhibition at 200 µM

Could you share which inhibition at 200 µM value was measured for COc1cccc(-c2cc(OP(=O)(O)O)cc(-c3cccc(OC)c3OC)c2)c1OC ?
40%

Same again, this time with COc1cc(-c2cccc(OP(=O)(O)O)c2)cc(OC)c1OC
39%

Same again, this time with COc1cc(-c2cc(OP(=O)(O)O)cc(-c3cc(OC)c(OC)c(OC)c3)c2)cc(OC)c1OC
37%

Same again, this time with COc1ccc(-c2cc(OP(=O)(O)O)cc(-c3ccc(OC)c(OC)c3)c2)cc1OC
44%

Same again, this time with COc1ccc(-c2cc(OP(=O)(O)O)cc(-c3ccc(OC)c(OC)c3OC)c2)c(OC)c1OC
28%
